experimentNotes: soluble on expression in E. coli; label from the status in PepcDB or PDB records
measurementType: soluble on expression in E. coli

Identify measured soluble on expression in E. coli corresponding to MADPGSVGHVFRRAFSWLPAQFASQSDAPVGAPRQFRSTEHLSIEAIAAFVDGELRMNAHLRAAHHLSLCAQCAAEVDDQSRARAALRDSHPIRIPSTLLGLLSEIPRCPPEGPSKGSSGGSSQGPPDGAAAGFGDRFADGDGGNRGRQSRVRR
soluble

Provide measured soluble on expression in E. coli value, entry: TLDEVKSLWDPRGISGTETASPQSDTPQAVSGASQPRWLRLSNGKQVDLRDWKVVLFMQGHCPYCHKFDPVLKQLAGQYGFSVFSYTIDGQGDDAFPEALPAPPDVMQTFFPNIPVATPTTFLVNVNTLAAYPILQGATDAQGFMARVDTVFQ
not soluble

Please report soluble on expression in E. coli for the following sequence: MLVLNPFSEKAVSPEDRDMVLRRGIAALDCSWKKVKKSSVIFQTARNHRSLPFLVAANPTNYGKPCILSTAEAVAATLYIVGLKDIASDIMSYFKWGPHFLDLNRELLEAYSRAENSLEVVEIQKKFIGGLEHHHHHH
soluble

Give the reported soluble on expression in E. coli for this sequence. MGHHHHHHSHVLPIYAYGHAVGKSVTGGYVYRGCESPNLNGLYIFGDFMSGRLMALQEDRKNKKWKKQDLCLGSTTSCAFPGLISTHSKFIISFAEDEAGELYFLATSYPSAYAPRGSIYKFVDPSRRAPPGKCKYKPVPVRTKSKRIPFRPLAKTVLDLLKEQSEKAARKSSSATLASGPAQGLSEKGSSKKLASPTSSKNTLRGPGTKKKARVGPHVRQGKRRKSLKSHSGRMRPSAEQKRAGRSLP
not soluble

---

experimentNotes: soluble on expression in E. coli; label from the status in PepcDB or PDB records
measurementType: soluble on expression in E. coli

Study these solved cases before continuing.
State, in one line, measured soluble on expression in E. coli of MAKPVVIGSRSFRTQSSALDHYKALLHRYQDGQRIADPADHTDLVALIERFDPVLDAVGEPAKGAGQIAHFERRLNTGIGWSTPGFWVVRQDGTETDFSYIDAVKGRPKGRSQDFYNACRQAVALDLVLAKKQAFAQYGDDQGRVECELTGKMVTIDDAHLDHAWPYFSHMVSGFRAARGWSRDIPDGIVSTPADGQTTATFLDSAVTEAFRAFHHDQAVLRVLSREANLQTASSARRPKVARPVRLA
not soluble

Answer with reported soluble on expression in E. coli of MGSDKIHHHHHHMKHYRQVVSPQLRQQALDWILAAAQRPDPALEPEFDIADDERREAKKVRNLHRHDPLFWDDWFARSGLDALVRDHLRKPRLLRHAAFIKRHADESYIPLHQDIALWEKRYESAQTFWVALTPSRNDNGGMFYYPDDRTIFPHEFDLAYPMFKCIDLQANGISREQLVDAELDAGDVLVWPARTAHGSHNNRSGQLRIGMPIVFVEDDEFHQLNREDSMKTWIASNLKSVFPDEAITEDNLDHYLPQLCDYSLKMVTFLARFSRQFGHAPKIHDFIREPRLATLSASDAGARR
not soluble

Please report the measured soluble on expression in E. coli for ARQVICWCFTLNNPLSPLSLHDSMKYLVYQTEQGEAGNIHFQGYIEMKKRTSLAGMKKLIPGAHFEKRRGTQGEARAYSMKEDTRLEGPWEYGE
soluble

Read the entry MQLNKVLKGLMLALPVLAVAACSSNKSANNDQSGMGAGTGTENGSNLSSEEQARLQMQELQKNNIVYFGFDKYDIGSDFAQMLDAHAAFLRSNPSDKVVVEGHADERGTPEYNIALGERRASAVKMYLQGKGVSADQISIVSYGKEKPAVLGHDEAAFAKNRRAVLVY and write its reported soluble on expression in E. coli.
not soluble

Name the recorded soluble on expression in E. coli of the item MKRVFVTVGTTSFDDLIARVVAHDSVQILKNLGYNQLVLQIGRGTVVPEPFSTESFTLDVYRYKDSLKEDLQQADLVISHAGAGSCLESLEKGKPLVVVVNEKLMNNHQFELAKQLHREGHLFYCTCSMLPELLQSMDLSTLKCYPPGQPEKFSAFLDKVVGLQK in your answer.
soluble

Here is another sequence to look at.
Look up and state reported soluble on expression in E. coli for MAHHHHHHMLQRLQLFRSTLVNFLEWRNFSDVVHGCYVRVLLEMRSTEENRRESPDNYYIALVKGAQRGPVYSGFSADAVTTEWHIVIELPPCFRSTQNGNVVQLNSISNSPFRQAEYQNWVDMTNETRELSFPSLPQLQFRLGMLEEHKQQALTPEPRRHRNGEDAEAAALREWALEEKRKRITEEIMVTHVKLRRIDQLKALSLEDLQEVEREILDLITGVRISINERSKCMLCHNRICTEICYPCKHQVLCKDCAKSIRGRCPAPKCKTPVQYTFEAFTS
not soluble

Cited source for all entries: the DeepSol protein solubility set
